- System: K4 kissing-loop RNA reporter;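 also: bound reporter read as fluorescence of individual clusters on recovered sequencing chips by microscopy, with normalized cluster intensities fitted with a binding model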
- assay.details: apparent KD of K4 kissing-loop reporter; higher = weaker reporter binding
- recorded.conditions: Eterna round: R107; input ligand: theophylline 20 uM
Provide the recorded apparent KD of K4 kissing-loop reporter for the entries that follow.
// return numeric value only (unit: nM, not printed)

Form field: reported apparent KD of K4 kissing-loop reporter of GUACGCUUCCGAGUGAUGUUCGGUAAUAGUUAGGAUAUCGUUUUUUCGAGAAGGAACUGAAUGAGGAAACUCGUUCGAAGUGUAC [FMN A 16]
424

Form field: reported apparent KD of K4 kissing-loop reporter of UAGUCGCUAGUUAGCGACAACGGGUCAGAUACCAGACUAGCGAUAGUCCCUUGGCAGCUGAAGUUCAGUGAUGUUGAACGGAUUA [Theo A SS t10]
230

Form field: reported apparent KD of K4 kissing-loop reporter of AAGAGGUAGGCGGCCGCCACUAGUUGUGAACACAUACGAGCCAGUGAUGUUGGUAUGGUGGGCGGUAGGACCGGGCCUACCUGAA [Exclusion - Tryptophan B (Freestyle 18)]
454

Form field: reported apparent KD of K4 kissing-loop reporter of UGUACCGAGUCAGGAUAUGACGACUAGUCAAAGACUGGUCGAAAAUCCAGUGAUGUUGGAAAUAAAUCAGAAGGGACUUGGUACU [FmnBS 16 #SwitchBubble #StaticStem]
357

Form field: reported apparent KD of K4 kissing-loop reporter of GGUUUAUAGGAGGAUACCAGUACGGAUAAAGUACGUUAAUAGUAGAGUGAUGUUCUAAAGUACCCUUGGCAGCUUAGAUUAAGUU [ExTheophylB.J]
110

Form field: reported apparent KD of K4 kissing-loop reporter of GAUAUAGUGAUGUUAUAUAAGAAGGAGUUACGAGGACCGGUACGGCCGCCACUCGAAACGAGUGAUGAUUUGGGAGAUUGGGUUG [SSTryptA.O]
339

Form field: reported apparent KD of K4 kissing-loop reporter of GGAGUUACCUGGGAUACCAGUCGGAGUCUCAGAGCACGGAGUGAUGUUCUGGGAUGUUUCGGCCCUUGGCAGCUCUGGGACUCCA [#2 Exclusion - Theophylline B Attempt #15 (HarryS)]
219

Form field: reported apparent KD of K4 kissing-loop reporter of UUAGAAGUAUACUUCAAGAGCUAUACUGAUACCAGAGUCAAUUGACUCCCUUGGCAGCGGAUCGAGUGAUGUUCGUAAGCUCAUU [AK4 SS Theophylline A]
521

Form field: reported apparent KD of K4 kissing-loop reporter of AGGGCUGAGAGCGAUACCAGCGGAUACUAUAUGGUCCAAUAGAGUGAUGUUUUAUAAAGCCGCCCUUGGCAGCGCAAUCUAUUAG [XTheo-B4]
982

Form field: reported apparent KD of K4 kissing-loop reporter of ACGUAGUACGUAGGAUAUCAGAGAUCAGUUAGUGAGAUCGAGUGAUGUUCGAUCAAGUGUUCAUUUUGAGAAGGAUGUAGUAGGA [KL-SSFMN-B7]
428

Form field: reported apparent KD of K4 kissing-loop reporter of GAUAUAGUGAUGUUAUAUAGGAAGGAGUUACGAGGACCGGUACGGCCGCCACUCGAAACGAGUGAUGAUUUGGGAGAUUGGGUUG [SSTryptA.P]
430

Form field: reported apparent KD of K4 kissing-loop reporter of ACUCCGAGUGAUGUUAAGAGAUUCUCUGUUAAGGAUAUUUUGCGCAAAAGAAGGUAACCCGGUUUUCGUAAUCUGUUAAUGCGGA [theeternabot_exclusion_KL_FMN_A_38]
532
